Source: PubChem BioAssay

Target: NADPH oxidase 4 (Homo sapiens)
Test: compounds shifting NOX4 Amplex Red fluorescence – cell-based, HEK293-NOX4, tetracycline-induced, NOX inhibitor project, primary screen (AID 1160)
Settings: HEK293-NOX4, Amplex Red H2O2 fluorescence, 45 min; higher = more signal, called active from +8 up or from −8 down
# if value of z-score reaches -1, tag T; if it stays below, tag F

Here's what some known entries look like.
>>> assignedcategory("Cc1ccc(S[C@]2(C(=O)NCc3ccccc3)CC(=O)N(Cc3ccccc3C(F)(F)F)[C@@H]2c2ccc(CO)cc2)cc1")
"T"
>>> assignedcategory("CC(C)(C)N1CC=CC23O[C@@H]4/C=C\\CCCOC(=O)C4[C@H]2C(=O)N(CCCCCO)[C@@H]3C1=O (stereo partly specified)")
"T"
>>> assignedcategory("CC(C)(C)N1CC=CC23O[C@@H]4/C=C\\CCCOC(=O)C4[C@H]2C(=O)N(CCCO)[C@@H]3C1=O (stereo partly specified)")
"T"
>>> assignedcategory("CO[C@H]1O[C@H](CO)[C@@H](OC(=O)Nc2ccccc2)[C@H](OC(=O)Nc2ccccc2)[C@H]1OC(=O)Nc1ccccc1")
"F"

Please examine the following record next.
Assess whether reported z-score for "CCCNC(=O)[C@@]1(Sc2ccc(C)cc2)CC(=O)N(Cc2ccccc2Cl)[C@@H]1c1ccc(CO)cc1I" sits at -1 or higher.
F

---

Target: Fibroblast growth factor 10 (Homo sapiens) (UniProt O15520)
Sequence (O15520 whole entry, looked up): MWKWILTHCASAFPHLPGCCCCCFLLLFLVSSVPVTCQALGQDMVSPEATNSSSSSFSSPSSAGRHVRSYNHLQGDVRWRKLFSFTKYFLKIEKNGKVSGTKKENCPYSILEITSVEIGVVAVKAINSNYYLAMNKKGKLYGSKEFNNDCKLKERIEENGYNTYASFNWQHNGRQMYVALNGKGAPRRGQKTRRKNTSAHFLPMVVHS
Test: compounds binding fibroblast growth factor 10 – biochemical, small-molecule microarray, 635 nm fluorescence, primary screen (AID 1102)
Conditions: FGF10 binding, fluorescence 635 nm, higher = more signal
measurementType: composite z-score
The response must contain the number and no unit.

Below, each entry is followed by its recorded composite z-score result.
>>> numericreadout("CCCC[C@H]1OB(O)C[C@H]2C1=C(COc1ccccc1)C[C@H]1C(=O)C=CC(=O)[C@H]12")
0.638
>>> numericreadout("O=C1C2C=CC(C(O)c3c(F)cccc3Cl)N(Nc3ccc([N+](=O)[O-])cc3)C2C(=O)N1c1ccccc1 (configuration not stated)")
1.2
>>> numericreadout("CCCc1cc2c(n1CCc1ccc(Cl)cc1)C(C)C1CN(C(=O)c3ccccc3)C(C)(C(=O)OC)C21 (configuration not stated)")
0.464
>>> numericreadout("CN(C)CCCC[C@@H]1NC(=O)[C@H]2C[C@@H](C(=O)O)[C@@H](c3ccc(O)cc3)N2C1=O")
1.55
>>> numericreadout("COCCOC(=O)N1C(=O)[C@@]2(c3cc(C#CCCO)ccc31)[C@H](c1ccc(OCCO)cc1)N1[C@H](c3ccccc3)[C@H](c3ccccc3)OC(=O)[C@H]1[C@@H]2C(=O)N1CCCCCCC1")
1.25
>>> numericreadout("CC(C)OC(=O)CC(=O)CC(O)c1cccc([N+](=O)[O-])c1 (configuration not stated)")
0.366

Consider the record given below.
Enter recorded composite z-score with Fibroblast growth factor 10 (Homo sapiens) (UniProt O15520) for Cc1ccccc1C(O)C1C=CC2C(=O)N(c3ccccc3)C(=O)C2N1Nc1ccccc1 (configuration not stated) here.
0.96

---

Test system: Neuregulin-1 EGF-like domain
Test: small molecules binding NRG1 EGF domain – biochemical, small-molecule microarray, 635 nm fluorescence, primary screen (AID 1081);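 note: binding of the protein to compounds printed on small-molecule microarray slides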
Conditions: higher = more signal
measurementType: composite z-score

Param request: composite z-score | system Neuregulin-1 EGF-like domain | item "COCCOC(=O)N1C(=O)[C@@]2(c3cc(C#CCCO)ccc31)[C@H](C(N)=O)[C@H]1C(=O)O[C@H](c3ccccc3)[C@H](c3ccccc3)N1[C@@H]2c1ccccc1OCCO"
1.19

Fill in: composite z-score on Neuregulin-1 EGF-like domain, entry CCC(CC)C(O)C1C=CC2C(=O)N(c3ccccc3)C(=O)C2N1Nc1ccccc1F (stereo not given)
1.38

Lab note: record composite z-score of CCCc1cc2c(n1CCc1ccc(Cl)cc1)C(C)C1CN(C(=O)c3ccccc3)C(C)(C(=O)OC)C21 (stereo not given) tested on Neuregulin-1 EGF-like domain.
0.937

State, for Neuregulin-1 EGF-like domain, measured composite z-score of the compound listed here: "C=CCOC(=O)[C@@H]1[C@H]2C(=O)O[C@H](c3ccccc3)[C@H](c3ccccc3)N2[C@H](c2ccc(OCCOC(=O)[C@H]3C[C@H]4C(=O)N5CCC[C@H]5C(=O)N4[C@H]3c3cccc(OCCO)c3)cc2)[C@@]12C(=O)Nc1ccc(I)cc12"
1.2

# lookup: Neuregulin-1 EGF-like domain composite z-score, key = CCCCC(O)C1C=CC2C(=O)N(c3ccccc3)C(=O)C2N1Nc1ccc([N+](=O)[O-])cc1 (stereo not given)
1.35
